Exercise: for every item that follows, state its recorded protein stability index.
B1: VPS39 (parent)
chain: ITEEKVCMVCKKKIGNSAFARYPN

# Variants of: B1
# ASSAY DETAILS: protein stability index of a GFP-peptide fusion (GPS, HEK-293T) (PSI 1-6); higher = more stable;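 further: lentivirally expressed fusions sorted by FACS into six bins by GFP to DsRed ratio, PSI derived from sequencing read proportions per bin multiplied by bin number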
# STATED CONDITIONS: c terminus: a fixed tail appended

A20H = 2.38
A20D = 2.62
C10E = 4.15
N16H = 2.48
A18Q = 2.41
M8L = 2.65
G15T = 2.81
S17I = 3.04

Hi! Can you tell me protein stability index for each of these variants?
1. M8V
2. S17E
3. K5I
4. Y22W
5. N24H

Result block:
3.23
3.4
1.78
1.63
2.36

Hi! Can you tell me protein stability index for each of these variants?
1. M8E
2. V9I

Result block:
[2.85, 2.06]

Hi! Can you tell me protein stability index for each of these variants?
1. I1F
2. E3S
3. V6A
4. F19L

Result block:
2.67
1.97
1.83
2.28

Hi! Can you tell me protein stability index for each of these variants?
1. N24C
2. I1V
3. P23F

Result block:
[2.34, 2.95, 1.76]
